Experiment: cytotoxicity to tumor cell line MOLT4
Type: cell-based, human
Settings: human, molt4 cells, 100.0 μg/ml; read-out: Suppression
Procedure: Cytotoxicity to human tumor cell lines was examined as follows: Cells of human cell lines, K562, MOLT4, U937, HL60, KATOIII, KB, PC-6, PC-14 and CCRF-CEM were separately suspended to the concentration of 2×10^5 cells/ml in the RPMI1640 culture medium supplemented with 20% FCS. Fifty μl of this suspension was added to each well of 96-well microculture plates to which 50 μl of the test solution had been added. […]
MEASURE NAME: cytotoxicity at 72 h (%)
API: value field is a number in %; no unit string.

Provide only the value of recorded cytotoxicity at 72 h for CCCCCCC(=O)CCCCCC/C=C/CC1OC(=O)C(N)(CO)C1O (stereo not shown) 97.1

Hey, just so you know, these numbers are from patent US5219884A.
